Values from patent US20240254227A1

Biological target: T1, murine CD300LB stably expressed on Jurkat cells (mouse, UniProt Q3U497 18-209)
T1 construct: also called muCD300LB; mouse CD300LB
T1 sequence: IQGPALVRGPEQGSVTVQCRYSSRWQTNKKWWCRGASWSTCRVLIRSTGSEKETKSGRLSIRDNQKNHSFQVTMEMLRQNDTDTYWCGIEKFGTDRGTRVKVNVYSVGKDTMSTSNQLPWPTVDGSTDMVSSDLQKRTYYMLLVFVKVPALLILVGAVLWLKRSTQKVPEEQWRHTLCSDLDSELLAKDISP
Experiment: flow cytometry, stable Jurkat cells, supernatant or 10 ug/mL, isotype subtracted
readout-type: gMFI
Enter the number, and then the unit.

anti-CD300LB antibody CD-13 (antibody, V domains shown) VH: QIQLVQSGPELKKPGETVKISCKASGYTFTDYSMHWVKQAPGKGFKWMAWINTETGAPTHADDFRGRFAFSLETSASTAFLQISNLKTEDTATYFCVTFGKSYGMNYWGQGTSVTVSS VL: DIVLTQSPASLSVSLGQRATISCRASKSVGSSGSSYLHWYQQKPGQPPKLLIYLASNLESGVPARFSGSGSGTEFTLNIHPVEEEDAATYYCQHNAEVPPTFGGGTKLEIK :: 1190 gMFI

Alright, here's another binder for you.
Per the records, this binder ( anti-CD300LB antibody CD-15 (antibody, V domains shown) VH: QIQLVQSGPELKKPGETVKISCQVSGYTFTDYSMHWLKQAPGKGLKWMAWINTETGESTYTDEFKGRFVFSLETSVRTAYLKINNLKNEDTATYFCGTYGSSYGMAYWGQGTSVTVSS VL: DIVLTQSPASLPVSLGQRATISCRASKSVSTSGSSYLHWYQQKPGQPPKLLIYLASKLESGVPARFRGSGSGTDFTLNIHPVEEEDAATYYCQHNREVPPTFGGGTKLEIK ) has gMFI equal to 506 gMFI
